assay: AUC (infinity) in ICR mouse at 50 mg/kg, ip
Assay type: ADME, organism-based
Design: dose 50 mg/kg, route intraperitoneal, time infinity
experimental_context: in vivo
AUC(0-inf) values by entry
observation_type: AUC(0-inf) (µM·h)

1. O=c1[nH]c(N2CCC3(CC2)CN(CCO)c2cc(F)cc(F)c23)nc2c1CCCC2 : 555
2. O=C1N(CCO)c2cccc(Cl)c2C12CCN(c1nc3c(c(=O)[nH]1)CCCC3)CC2 : 157
3. O=c1[nH]c(N2CCC3(CC2)CN(CCO)c2cccc(Cl)c23)nc2c1CCCC2 : 667
4. O=C1N(CCO)c2cc(F)cc(F)c2C12CCN(c1nc3c(c(=O)[nH]1)CCCC3)CC2 : 106
